Tested on: Saccharomyces cerevisiae
Experiment: protein stability index of tFT-peptide fusion in wild type (PSI (0-1 scale)); higher = more stable (slower turnover)
Conditions: genetic background: wild type
The recorded protein stability index of each item maps onto one of these classes: low: < 0.08; middle: ≥ 0.08 and < 0.3; high: ≥ 0.3

Example cases with answers are listed next.
LKILRQKMEHQN :: high
LVVYLSCVAIIN :: low
KKHKIGQKQKIN :: middle

Dear colleague, I would appreciate it if you could identify the bin for "KKHKKDQKQKIN" and reply at your convenience.
low

====

Test system: Saccharomyces cerevisiae
Assay: protein stability index of tFT-peptide fusion (C-terminal peptide) (PSI (0-1 scale)); higher = more stable (slower turnover)
Conditions: genetic background: wild type; temperature: 30 C
// not satisfied strictly below 0.7 in protein stability index; satisfied otherwise

LPRPPPPPPPSP :: satisfied
SRASATTLRLAT :: not satisfied
TLVPAYRCEWCA :: satisfied
LPPRPSPPRRPP :: not satisfied
GLGLASWGDLEL :: satisfied
VHFGVLSLGKRH :: satisfied
RMINHGNKAKFS :: not satisfied
DHLVLSGPPPPV :: satisfied
DRPYTEILEFRL :: satisfied
FFWFFFLRFLFS :: not satisfied

Next, consider the following sequence.
Check if protein stability index >= 0.7 (inclusive). Item: "RGWGVLCGGGWG"
not satisfied
